B1: HSP90AB1 (parent)
chain: TLRQKAEADKNDKAVKDLVVLLFE

# Variants of: B1
# Assay Summary: protein stability index of a GFP-peptide fusion (GPS, HEK-293T) (PSI 1-6); higher = more stable;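 note: lentivirally expressed fusions sorted by FACS into six bins by GFP to DsRed ratio, PSI derived from sequencing read proportions per bin multiplied by bin number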
# Measurement Conditions: c terminus: a fixed tail appended
Quick reference for protein stability index among some variants
Would you mind answering with just the numeric figure?

Look over these answered cases.
>>> df
                     residue_codes  value
0  TLRQKAEADKFDKAVKDLVVLLFE [N11F]   3.09
1  TLRQKAEADKNDKAVKDLVTLLFE [V20T]   3.48

Exam item: Could you share which protein stability index value was measured for TLRQKAEADKNDKAVKDLVFLLFE [V20F] ?
Marked response: 2.96

Exam item: Then what about the variant TLRQKAEADKNDMAVKDLVVLLFE [K13M] ?
Marked response: 2.75

Exam item: Then what about the variant TLRWKAEADKNDKAVKDLVVLLFE [Q4W] ?
Marked response: 2.71

Exam item: Then what about the variant TLRQKAEADKNDKAVKDLVGLLFE [V20G] ?
Marked response: 3.64

Exam item: Then what about the variant TLRQKAEADKKDKAVKDLVVLLFE [N11K] ?
Marked response: 2.43

Exam item: Then what about the variant TLRQDAEADKNDKAVKDLVVLLFE [K5D] ?
Marked response: 3.88

Exam item: Then what about the variant TLRQKAEADKNDKAVKNLVVLLFE [D17N] ?
Marked response: 2.69
